Tested on: HLA-A*2402 transgenic mice
assay_protocol: CTL induction in vivo in HLA-A*2402 transgenic mice (immunogenicity, Cr51 cytotoxic assay)
Parameters: key: −: (-) means that none of the mice vaccinated with the corresponding native peptides develops a specific immune response; (+) that less to 50% of vaccinated mice responded; (++) that more that 50% responded
condition_summary: Table 7; mice vaccinated with the native or modified peptide; share of mice responding

sequence_record | Immunogenicity (class)
PYWELSNHE (Cryptic HLA-A2402 restricted peptide) [EphA2 817, native cryptic HLA-A*2402 restricted peptide] | −
RYNYLSTDL (Optimized peptide derived from cryptic peptides of SEQ ID Nos 1 to 9) [Her2/neu 300 R1L9, modified peptide] | −
RYDGIPARL (Optimized peptide derived from cryptic peptides of SEQ ID Nos 1 to 9) [Her2/neu 922 R1L9, modified peptide] | −

Where do the numbers come from? From patent US8900600B2.
